// mortality lookup, one value per entry
- Assay Name: acute toxicity in ICR mouse
- Format: in vivo
- Study Conditions: mouse, in vivo, 2000 mg/kg; read-out: Lethal ratio (%)
Measurement Type: mortality

* COC(=O)C1=CO[C@@H](OCc2ccccc2)[C@@H]2C(CN=[N+]=[N-])=CC[C@H]12 [Compound (I)a] | 0%
* COC(=O)C1=CO[C@@H]2O[C@H](OC)[C@@H]3CC[C@H]1[C@H]23 [Compound (I)b] | 0%
* COC(=O)C1=CO[C@H](OCc2ccccc2)[C@H]2[C@@H]1CC1OC(C)(C)OC12CNC(=O)Nc1cccnc1 (stereo partly shown) [Compound (I)d] | 0%
* COC(=O)C1=CO[C@@H](OCc2ccccc2)[C@@H]2C(/C=N/OC(C)(C)C)=CC[C@H]12 [Compound (I)c] | 0%

---

// mortality lookup, one value per entry
- Assay Name: acute toxicity in ICR mouse
- Format: in vivo
- Study Conditions: mouse, in vivo, 250 mg/kg; read-out: Lethal ratio (%)
Measurement Type: mortality (%)

* COC(=O)C1=CO[C@H](OCc2ccccc2)[C@H]2[C@@H]1CC1OC(C)(C)OC12CNC(=O)Nc1cccnc1 (stereo partly shown) [Compound (I)d] | 0
* COC(=O)C1=CO[C@@H](OCc2ccccc2)[C@@H]2C(/C=N/OC(C)(C)C)=CC[C@H]12 [Compound (I)c] | 0
* COC(=O)C1=CO[C@@H]2O[C@H](OC)[C@@H]3CC[C@H]1[C@H]23 [Compound (I)b] | 0
* COC(=O)C1=CO[C@@H](OCc2ccccc2)[C@@H]2C(CN=[N+]=[N-])=CC[C@H]12 [Compound (I)a] | 0
